activity coefficient: recorded values
assay: activity coefficient (dimensionless); of the first substance listed, at infinite dilution; xn = mol fraction of the nth substance listed; settings: 323 K; 101 kPa; Liquid; Chromatography; x1 = 0
READOUT NAME: activity coefficient

>>> reading("CC#N [acetonitrile] + CCCCCCCC[N+]1(C)CCCC1.O=S(=O)([N-]S(=O)(=O)C(F)(F)F)C(F)(F)F")
0.43
>>> reading("C[N+](=O)[O-] [nitromethane] + CCCCCCCC[N+]1(C)CCCC1.O=S(=O)([N-]S(=O)(=O)C(F)(F)F)C(F)(F)F")
0.54
>>> reading("CCCCCCCCC [nonane] + CCCCCCCC[N+]1(C)CCCC1.O=S(=O)([N-]S(=O)(=O)C(F)(F)F)C(F)(F)F")
11.3
>>> reading("CCc1ccccc1 [ethylbenzene] + CCCCCCCC[N+]1(C)CCCC1.O=S(=O)([N-]S(=O)(=O)C(F)(F)F)C(F)(F)F")
1.03
>>> reading("CO [methanol] + CCCCCCCC[N+]1(C)CCCC1.O=S(=O)([N-]S(=O)(=O)C(F)(F)F)C(F)(F)F")
0.97
>>> reading("CCO [ethanol] + CCCCCCCC[N+]1(C)CCCC1.O=S(=O)([N-]S(=O)(=O)C(F)(F)F)C(F)(F)F")
1.33
>>> reading("c1ccccc1 [benzene] + CCCCCCCC[N+]1(C)CCCC1.O=S(=O)([N-]S(=O)(=O)C(F)(F)F)C(F)(F)F")
0.6

Where do these numbers come from? They come from the NIST ThermoML archive (doi:10.1021/je300692s).
